# Tgt: recombinant full-length HSET (Homo sapiens, UniProt Q9BW19)
# Construct: 5 nM full-length human N-terminal His-tag HSET; His-tag (N)
# Sequence (Q9BW19 whole entry): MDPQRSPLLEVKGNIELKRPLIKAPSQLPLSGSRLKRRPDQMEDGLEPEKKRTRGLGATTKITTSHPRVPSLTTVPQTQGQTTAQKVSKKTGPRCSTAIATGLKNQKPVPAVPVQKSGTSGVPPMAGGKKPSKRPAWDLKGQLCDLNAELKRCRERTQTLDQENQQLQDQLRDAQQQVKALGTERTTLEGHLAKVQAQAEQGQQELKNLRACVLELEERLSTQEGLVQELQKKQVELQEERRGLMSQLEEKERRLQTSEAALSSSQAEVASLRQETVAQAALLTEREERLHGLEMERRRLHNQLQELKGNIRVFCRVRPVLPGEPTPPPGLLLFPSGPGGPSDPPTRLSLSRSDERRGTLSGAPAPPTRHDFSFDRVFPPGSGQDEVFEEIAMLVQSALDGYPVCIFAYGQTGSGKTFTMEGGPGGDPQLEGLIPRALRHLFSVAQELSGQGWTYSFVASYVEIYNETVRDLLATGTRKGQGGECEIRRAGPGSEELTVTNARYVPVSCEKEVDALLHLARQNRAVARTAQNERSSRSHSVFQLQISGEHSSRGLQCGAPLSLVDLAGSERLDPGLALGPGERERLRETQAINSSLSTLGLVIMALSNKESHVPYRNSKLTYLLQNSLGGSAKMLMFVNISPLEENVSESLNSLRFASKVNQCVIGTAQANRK
# Protocol Description: ADP-Glo HSET assay (3 μM ATP), microtubule-stimulated ATPase
# Format: biochemical
# Experimental Context: preformed microtubules, 3 μM ATP; mean (±SD) n ≥ 3 (37 n = 2, 38 single determination) (Table 3); read-out: HSET ADP-Glo IC50
# Experimental: The HSET or Eg5 ATPase activity was measured using the ADP-Glo Kinase Assay kit (Promega, V9102). […] The luminescence was read after 45 min on a PheraStar FSX plate reader (BMG Labtech). […] Percentage inhibition was determined based on normalization to high controls (0% inhibition, all reagents with 100 nL of DMSO alone) and low controls (100% inhibition as a high control, without HSET). […]
pIC50: −log10 of the molar value.
Readout Label: pIC50

a = CCCOC(=O)c1sc(NC(=O)C[C@H](CCCN(C)CC#CCNC(=O)O[C@@H]2CC/C=C/CCC2)NC(=O)c2cccc(-c3noc(C)n3)c2)nc1C [Compound 40]
b = CCCOC(=O)c1sc(NC(=O)C[C@@H](CCCNC)NC(=O)c2cccc(-c3noc(C)n3)c2)nc1C [Compound 34]
c = CCCOC(=O)c1sc(NC(=O)C[C@H](CCCN(C)CCOCCOCCNC(=O)O[C@@H]2CC/C=C/CCC2)NC(=O)c2cccc(-c3noc(C)n3)c2)nc1C [Compound 39]
Rank items: key pIC50, increasing. Use the labels to give the requested order. b, c, a

Sourced from paper PMC9969401
